These measurements were taken from patent US20250171459A1.

A collection of compounds and their measured pIC50
# assayTarget: APOL1 (Homo sapiens, UniProt O14791)
# Sequence (O14791 whole entry S342G/I384M, form open): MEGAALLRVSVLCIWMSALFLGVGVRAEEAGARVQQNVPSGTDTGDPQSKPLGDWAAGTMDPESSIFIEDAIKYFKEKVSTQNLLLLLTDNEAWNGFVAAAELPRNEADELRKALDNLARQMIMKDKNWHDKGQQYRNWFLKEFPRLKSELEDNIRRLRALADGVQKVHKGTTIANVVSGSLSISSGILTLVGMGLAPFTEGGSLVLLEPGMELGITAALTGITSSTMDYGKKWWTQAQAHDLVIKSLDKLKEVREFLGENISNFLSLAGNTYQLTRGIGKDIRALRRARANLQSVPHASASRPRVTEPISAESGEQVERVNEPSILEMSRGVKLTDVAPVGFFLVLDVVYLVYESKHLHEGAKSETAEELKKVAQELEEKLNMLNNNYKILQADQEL
# protocolDescription: MultiTox-Fluor Multiplex Cytotoxicity Assay in tet-inducible APOL1 T-REx-HEK293 cells (cell rescue, ratio of dead to live cells)
# conditions: tet-inducible transgenic APOL1 T-REx-HEK293 cell lines, 50 ng/mL tet, 24 hours; read-out: IP50 (i.e., IC50 for cell proliferation)
pIC50: −log10 of the molar value.

A selection of reference data follows.
>>> readoutvalue("CCc1cc2c(s1)CCO[C@@]21CCN(C[C@H]2C[C@@H](NC(=O)CC3(O)CCCCC3)C2)[C@@H](C)C1 [Compound 303]")
"> 7.00"
>>> readoutvalue("CCc1cc2c(s1)CCO[C@@]21CCN(Cc2cn(CC3(COC)CCOCC3)nn2)[C@@H](C)C1 [Compound 94]")
"6.30 to 7.00"
>>> readoutvalue("C[C@H]1C[C@@]2(CCN1Cc1ccc(S(C)(=O)=O)cc1)OC[C@H](O)c1cc(Cl)sc12 [Compound 802]")
"6.30 to 7.00"

# input for lookup
Request: Look up and state reported pIC50 for C[C@H]1C[C@@]2(CCN1Cc1cnn(CC3CC4(CCOCC4)C(=O)O3)c1)OCCc1c2sc(C(F)(F)F)c1CO (stereo partly shown) [Compound 984]
Result: > 7.00
